Values were extracted from patent US20230105212A1.

# Test system: NFAT-luc2/PD1 Jurkat cells
# PROTOCOL_TEXT: In vitro cytotoxicity on NFAT-luc2/PD1 Jurkat cells (CellTiter-Glo)
# Assay type: cell-based
# EXPERIMENTAL_CONDITIONS: Homo sapiens, Jurkat, 72 hours
PROPERTY_MEASURED: IC50 (µM)
Give the value, in units of µM, as a plain number.

>  <COMPOUND>
COc1cc(C(=O)Nc2cccc(-c3cccc(NC(=O)c4nc5c(n4C)CCN(C)C5)c3Cl)c2C)ncc1CNc1ccnc(C)n1 [Embodiment 90]

>  <PROPERTY_MEASURED>
IC50

>  <ASSAY_VALUE>
1.4

$$$$

Find the measured IC50: item COc1nc(-c2cccc(-c3cccc(NC(=O)c4nc5c(n4C)CCN(C)C5)c3Cl)c2Cl)ccc1CN1CC(C(=O)N(C)C)C1 [Embodiment 183] , target or system NFAT-luc2/PD1 Jurkat cells.
5.82

###

Quick reference: Emax of the listed items.
# SYSTEM_NAME: PD-L1 protein on the surface of MC38-hPDL1 tumor cells (Homo sapiens, UniProt Q9NZQ7)
# Construct: expressed in transfected cells; host or cells: MC38-hPDL1 (mouse colon cancer cells)
# Sequence (Q9NZQ7 19-290): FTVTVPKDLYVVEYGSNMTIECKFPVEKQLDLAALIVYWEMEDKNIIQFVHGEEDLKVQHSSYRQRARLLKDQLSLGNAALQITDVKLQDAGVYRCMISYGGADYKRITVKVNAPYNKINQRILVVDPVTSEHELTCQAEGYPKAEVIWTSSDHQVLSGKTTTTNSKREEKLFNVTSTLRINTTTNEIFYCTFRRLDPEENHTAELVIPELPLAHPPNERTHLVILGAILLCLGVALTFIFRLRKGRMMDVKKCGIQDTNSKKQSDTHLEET
# PROTOCOL_TEXT: Induction of endocytosis of PD-L1 on the surface of tumor cells (flow cytometry)
# Format: cell-based
# EXPERIMENTAL_CONDITIONS: MC38-hPDL1 cells, 16 hours incubation; read-out: MC38 maximum endocytosis rate
Give the value, in units of %, as a plain number.

>  <CHEMICAL_SMILES>
COc1nc(-c2cccc(-c3cccc(NC(=O)c4nc5c(n4C)CCN(C)C5)c3Cl)c2Cl)ccc1CN1CC2(CCN(C(C)=O)C2)C1

>  <Emax (%)>
96

$$$$
>  <CHEMICAL_SMILES>
CCn1c(C(=O)Nc2cccc(-c3cccc(-c4ccc(CN5CC(CO)C5)c(OC)n4)c3Cl)c2Cl)nc2c1CCN(C)C2

>  <Emax (%)>
95

$$$$
>  <CHEMICAL_SMILES>
COc1nc(-c2cccc(-c3cccc(NC(=O)c4nc5c(n4C)CCN(C)C5)c3Cl)c2Cl)ccc1CNCC(=O)O

>  <Emax (%)>
97

$$$$
>  <CHEMICAL_SMILES>
COc1cc(-c2cccc(-c3cccc(NC(=O)c4nc5c(n4C)CCN(C)C5)c3Cl)c2Cl)ccc1CNC[C@@H](C)O

>  <Emax (%)>
95

$$$$
>  <CHEMICAL_SMILES>
COc1cc(-c2cccc(-c3cccc(NC(=O)c4nc5c(n4C)CCN(C)C5)c3Cl)c2Cl)ccc1CNCCO

>  <Emax (%)>
95

$$$$

Given COc1nc(-c2cccc(-c3cccc(NC(=O)c4nc5c(n4C)CCN(C)C5)c3Cl)c2Cl)ccc1CN1CCN(C(=O)C(C)C)CC1 , state its recorded Emax.
93

###

# SYSTEM_NAME: human PD-L1 protein (Homo sapiens, UniProt Q9NZQ7)
# Construct: purchased Acro Biosystems PD1-H5229
# PROTOCOL_TEXT: Thermal shift: melting temperature of PD-L1 protein
# Format: binding
# EXPERIMENTAL_CONDITIONS: compound 10 μM, PD-L1 protein 2 μM, Tm minus DMSO vehicle control; read-out: ΔTm (° C.)
PROPERTY_MEASURED: ΔTm at 10 µM (°C)
Give the value, in units of °C, as a plain number.

Given COc1nc(-c2cccc(-c3cccc(NC(=O)c4nc5c(n4C)CCN(C)C5)c3Cl)c2Cl)ccc1CN1C2CC1CN(C(C)=O)C2 , state its recorded ΔTm at 10 µM.
10.7

Given COc1nc(-c2cccc(-c3cccc(NC(=O)c4nc5c(n4C)CCN(C)C5)c3Cl)c2Cl)ccc1CNC(CO)CO , state its recorded ΔTm at 10 µM.
16.6

Given COc1nc(-c2cccc(-c3cccc(NC(=O)c4nc5c(n4C)CCN(C)C5)c3Cl)c2Cl)ccc1CN1C2CC1CN(C(=O)C(C)C)C2 , state its recorded ΔTm at 10 µM.
10.7

Given COc1cc(C(=O)Nc2cccc(-c3cccc(NC(=O)c4nc5c(n4C)CCN(C)C5)c3Cl)c2C)ncc1CNc1ccc(C)nc1 , state its recorded ΔTm at 10 µM.
10.5

Given COc1nc(-c2cccc(-c3cccc(NC(=O)c4nc5c(n4C)CCN(C)C5)c3Cl)c2Cl)ncc1CN[C@H]1CCOC[C@@H]1O (relative stereo) , state its recorded ΔTm at 10 µM.
11.6
